system_name: TDO2 in A172 cancer cells (Homo sapiens, UniProt P48775)
Construct: endogenous in cells
Sequence (P48775 whole entry): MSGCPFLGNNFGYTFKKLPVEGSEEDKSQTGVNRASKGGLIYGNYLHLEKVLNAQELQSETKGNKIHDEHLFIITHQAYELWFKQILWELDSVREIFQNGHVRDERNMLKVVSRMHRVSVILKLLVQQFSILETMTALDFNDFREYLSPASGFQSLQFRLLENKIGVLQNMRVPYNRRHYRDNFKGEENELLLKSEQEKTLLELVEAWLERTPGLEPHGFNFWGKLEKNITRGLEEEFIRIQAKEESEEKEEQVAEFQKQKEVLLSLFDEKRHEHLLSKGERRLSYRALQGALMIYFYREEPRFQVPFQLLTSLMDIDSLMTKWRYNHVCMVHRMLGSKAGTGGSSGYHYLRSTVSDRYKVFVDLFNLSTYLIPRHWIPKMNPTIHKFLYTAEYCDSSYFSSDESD
test: TDO2 Cellular Assay (kynurenine production in A172 cancer cells)
particulars: L-Trp 1 mM, 24 hours incubation, kynurenine at 490 nm
Procedure: A172 cancer cells (3×10^4 per well) in 85 μL DMEM medium containing 10% FBS were seeded in a 96-well plate and incubated at 95% humidity and 5% CO2 at 37° C. for overnight. […] The yellow color derived from kynurenine was measured at 490 nm using a microplate reader. […] Data was analyzed by GraphPad Prism 5 and the IC50 values were obtained by non-linear regression. […]
experimental_endpoint: IC50

Example results:
O=C(C1CCCCC1)N1C[C@@H]2C[C@@](O)(c3cc(Cl)cc4[nH]ncc34)C[C@@H]2C1 : ≤ 500 nM
OCC1[C@H]2C[C@](O)(c3cc(Cl)cc4[nH]ncc34)C[C@@H]12 (stereo partly shown) : ≤ 500 nM
N#Cc1ccc(C(=O)N2C[C@@H]3CN(c4cc(Cl)cc5[nH]ncc45)C[C@@H]3C2)cc1 : > 5000 nM

# next compound below
Notebook: CC1(C)C2CN(c3cc(Cl)cc4[nH]ncc34)CC2CN1S(C)(=O)=O (single isomer, unassigned) [Example 1a] , IC50 read as 500 to 1000 nM

###

This section presents compounds with their documented IC50 values.
system_name: TDO2 in A172 cancer cells (Homo sapiens)
Construct: endogenous in cells
test: TDO2 Cellular Assay (kynurenine production in A172 cancer cells)
particulars: L-Trp 1 mM, 24 hours incubation, kynurenine at 490 nm

Check out these entries, answers already filled in.
CC(=O)N1C[C@H]2CC(C(O)c3cc(Cl)cc4[nH]ncc34)C[C@H]2C1 (stereo partly drawn) : 500 to 1000 nM
O=C(Nc1ccc(Cl)cc1)N1C[C@@H]2C[C@@](O)(c3cc(Cl)cc4[nH]ncc34)C[C@@H]2C1 : ≤ 500 nM
O=C(Cc1ccc(Cl)cc1)N[C@H]1[C@@H]2C[C@@](O)(c3cc(Cl)cc4[nH]ncc34)C[C@@H]21 : ≤ 500 nM
O[C@@]1(c2cc(Cl)cc3[nH]ncc23)C[C@H]2CN(c3ccncc3)C[C@H]2C1 : ≤ 500 nM
CC(=O)N[C@H]1[C@@H]2C[C@@](O)(c3cc(C(F)(F)F)cc4[nH]ncc34)C[C@@H]21 : ≤ 500 nM
O=S(=O)(N[C@H]1[C@@H]2C[C@@](O)(c3cc(Cl)cc4[nH]ncc34)C[C@@H]21)C1CCCC1 : ≤ 500 nM
CC(=O)N1C[C@@H]2CN(c3c(C(F)(F)F)ccn4cncc34)C[C@@H]2C1(C)C (racemic) : > 5000 nM
CS(=O)(=O)N1C[C@@H]2C[C@@](O)(c3c(Cl)ccc4cncn34)C[C@@H]2C1 : 1000 to 5000 nM
CS(=O)(=O)N1CCCC2CN(c3cc(Cl)cc4[nH]ncc34)CC21 (stereo not drawn) : 500 to 1000 nM
CCC(=O)N1C[C@@H]2C[C@@](O)(c3cc(Cl)cc4[nH]ncc34)C[C@@H]2C1 : ≤ 500 nM

What the record says about `O=C(N[C@H]1[C@@H]2C[C@@](O)(c3cc(Cl)cc4[nH]ncc34)C[C@@H]21)C1CCCCC1` : IC50 is ≤ 500 nM

// IC50 value for `O=C(N[C@H]1[C@@H]2C[C@@](O)(c3cc(Cl)cc4[nH]ncc34)C[C@@H]21)c1cccc(C(F)(F)F)c1` : ≤ 500 nM

The recorded IC50 for entry `O=C(N[C@H]1[C@@H]2C[C@@](O)(c3cc(C(F)(F)F)cc4[nH]ncc34)C[C@@H]21)c1cccc(Cl)c1` equals ≤ 500 nM

So, CS(=O)(=O)N1C[C@H]2CC(C(O)c3cc(Cl)cc4cn[nH]c34)C[C@H]2C1 (stereo partly drawn) ? Its IC50 was 1000 to 5000 nM

Item: `O=C(C1CCC1)N1C[C@@H]2C[C@@](O)(c3cc(Cl)cc4[nH]ncc34)C[C@@H]2C1` | IC50: ≤ 500 nM
